Details: human, 1 h, 50 ng/mL
Quick reference: % from t0 of the listed items.

{"columns": ["Molecule", "Units", "% from t0"],
 "data": [
  ["O=c1nc(N2CCN(CC3(O)CCCCC3)CC2)sc2c([N+](=O)[O-])cc(C(F)(F)F)cc12 [Met 1-OH]", "%", -1],
  ["O=c1nc(N2CCN(CC3CCCCC3)CC2)sc2c([N+](=O)[O-])cc(C(F)(F)F)cc12 [PBTZ169, macozinone]", "%", -1],
  ["O=c1nc(N2CCN(CC3CCCC(O)C3)CC2)sc2c([N+](=O)[O-])cc(C(F)(F)F)cc12 (stereo not drawn) [Met 3-OH]", "%", 12],
  ["O=C1CCCC(CN2CCN(c3nc(=O)c4cc(C(F)(F)F)cc([N+](=O)[O-])c4s3)CC2)C1 (stereo not drawn) [Met 3-oxo]", "%", -22],
  ["O=C(C1CCCCC1)N1CCN(c2nc(=O)c3cc(C(F)(F)F)cc([N+](=O)[O-])c3s2)CC1 [Met oxo]", "%", -1],
  ["O=c1nc(N2CCN(CC3CCCCC3O)CC2)sc2c([N+](=O)[O-])cc(C(F)(F)F)cc12 (stereo not drawn) [Met 2-OH]", "%", -10]
]}

###

Conditions: human, 2 h, 200 ng/mL

{"columns": ["Compound", "Units", "% from t0"],
 "data": [
  ["O=C(C1CCCCC1)N1CCN(c2nc(=O)c3cc(C(F)(F)F)cc([N+](=O)[O-])c3s2)CC1 [Met oxo]", "%", 1],
  ["O=c1nc(N2CCN(CC3CCCCC3O)CC2)sc2c([N+](=O)[O-])cc(C(F)(F)F)cc12 (stereo not drawn) [Met 2-OH]", "%", -5],
  ["O=C1CCCC(CN2CCN(c3nc(=O)c4cc(C(F)(F)F)cc([N+](=O)[O-])c4s3)CC2)C1 (stereo not drawn) [Met 3-oxo]", "%", -11],
  ["O=c1nc(N2CCN(CC3(O)CCCCC3)CC2)sc2c([N+](=O)[O-])cc(C(F)(F)F)cc12 [Met 1-OH]", "%", -3],
  ["O=c1nc(N2CCN(CC3CCCC(O)C3)CC2)sc2c([N+](=O)[O-])cc(C(F)(F)F)cc12 (stereo not drawn) [Met 3-OH]", "%", 1],
  ["O=c1nc(N2CCN(CC3CCCCC3)CC2)sc2c([N+](=O)[O-])cc(C(F)(F)F)cc12 [PBTZ169, macozinone]", "%", -3]
]}

###

Conditions: processed extract sample, 4°C, 24h, level M (QC 150 ng/mL)
Quick reference: % from t0 of the listed items.

{"columns": ["Compound", "Units", "% from t0"],
 "data": [
  ["O=c1nc(N2CCN(CC3CCCCC3)CC2)sc2c([N+](=O)[O-])cc(C(F)(F)F)cc12", "%", -7],
  ["O=c1nc(N2CCN(CC3(O)CCCCC3)CC2)sc2c([N+](=O)[O-])cc(C(F)(F)F)cc12", "%", -9],
  ["O=c1nc(N2CCN(CC3CCCC(O)C3)CC2)sc2c([N+](=O)[O-])cc(C(F)(F)F)cc12 (stereo not drawn)", "%", -9],
  ["O=C1CCCC(CN2CCN(c3nc(=O)c4cc(C(F)(F)F)cc([N+](=O)[O-])c4s3)CC2)C1 (stereo not drawn)", "%", -9],
  ["O=C(C1CCCCC1)N1CCN(c2nc(=O)c3cc(C(F)(F)F)cc([N+](=O)[O-])c3s2)CC1", "%", 5],
  ["O=c1nc(N2CCN(CC3CCCCC3O)CC2)sc2c([N+](=O)[O-])cc(C(F)(F)F)cc12 (stereo not drawn)", "%", -10]
]}

###

Details: human, 6 h, 1000 ng/mL

{"columns": ["Compound", "Units", "% from freshly processed samples (n=2)"],
 "data": [
  ["O=C1CCCC(CN2CCN(c3nc(=O)c4cc(C(F)(F)F)cc([N+](=O)[O-])c4s3)CC2)C1 (stereo not drawn)", "%", 0],
  ["O=c1nc(N2CCN(CC3CCCC(O)C3)CC2)sc2c([N+](=O)[O-])cc(C(F)(F)F)cc12 (stereo not drawn)", "%", -1],
  ["O=c1nc(N2CCN(CC3CCCCC3O)CC2)sc2c([N+](=O)[O-])cc(C(F)(F)F)cc12 (stereo not drawn)", "%", 0],
  ["O=C(C1CCCCC1)N1CCN(c2nc(=O)c3cc(C(F)(F)F)cc([N+](=O)[O-])c3s2)CC1", "%", -3],
  ["O=c1nc(N2CCN(CC3(O)CCCCC3)CC2)sc2c([N+](=O)[O-])cc(C(F)(F)F)cc12", "%", 0],
  ["O=c1nc(N2CCN(CC3CCCCC3)CC2)sc2c([N+](=O)[O-])cc(C(F)(F)F)cc12", "%", -10]
]}

###

Conditions: human, 1 h, 20 ng/mL
Measurement Label: % from t0 (%)

{"columns": ["Compound", "Units", "Observed"],
 "data": [
  ["O=C1CCCC(CN2CCN(c3nc(=O)c4cc(C(F)(F)F)cc([N+](=O)[O-])c4s3)CC2)C1 (stereo not drawn) [Met 3-oxo]", "%", -6],
  ["O=c1nc(N2CCN(CC3CCCC(O)C3)CC2)sc2c([N+](=O)[O-])cc(C(F)(F)F)cc12 (stereo not drawn) [Met 3-OH]", "%", 8],
  ["O=c1nc(N2CCN(CC3(O)CCCCC3)CC2)sc2c([N+](=O)[O-])cc(C(F)(F)F)cc12 [Met 1-OH]", "%", 3],
  ["O=c1nc(N2CCN(CC3CCCCC3O)CC2)sc2c([N+](=O)[O-])cc(C(F)(F)F)cc12 (stereo not drawn) [Met 2-OH]", "%", 1],
  ["O=C(C1CCCCC1)N1CCN(c2nc(=O)c3cc(C(F)(F)F)cc([N+](=O)[O-])c3s2)CC1 [Met oxo]", "%", 1],
  ["O=c1nc(N2CCN(CC3CCCCC3)CC2)sc2c([N+](=O)[O-])cc(C(F)(F)F)cc12 [PBTZ169, macozinone]", "%", 2]
]}

###

Conditions: human, 6 h, 50 ng/mL
Quick reference: % from freshly processed samples (n=2) of the listed items.
Measurement Label: % from freshly processed samples (n=2)

{"columns": ["Compound", "Measurement Label", "Observed"],
 "data": [
  ["O=c1nc(N2CCN(CC3CCCCC3O)CC2)sc2c([N+](=O)[O-])cc(C(F)(F)F)cc12 (stereo not drawn)", "% from freshly processed samples (n=2)", "-4%"],
  ["O=C1CCCC(CN2CCN(c3nc(=O)c4cc(C(F)(F)F)cc([N+](=O)[O-])c4s3)CC2)C1 (stereo not drawn)", "% from freshly processed samples (n=2)", "-6%"],
  ["O=c1nc(N2CCN(CC3CCCC(O)C3)CC2)sc2c([N+](=O)[O-])cc(C(F)(F)F)cc12 (stereo not drawn)", "% from freshly processed samples (n=2)", "-8%"],
  ["O=c1nc(N2CCN(CC3(O)CCCCC3)CC2)sc2c([N+](=O)[O-])cc(C(F)(F)F)cc12", "% from freshly processed samples (n=2)", "-1%"],
  ["O=C(C1CCCCC1)N1CCN(c2nc(=O)c3cc(C(F)(F)F)cc([N+](=O)[O-])c3s2)CC1", "% from freshly processed samples (n=2)", "-10%"],
  ["O=c1nc(N2CCN(CC3CCCCC3)CC2)sc2c([N+](=O)[O-])cc(C(F)(F)F)cc12", "% from freshly processed samples (n=2)", "7%"]
]}

###

Details: human, 2 h, 50 ng/mL

{"columns": ["Compound", "% from t0 [%]"],
 "data": [
  ["O=c1nc(N2CCN(CC3CCCCC3)CC2)sc2c([N+](=O)[O-])cc(C(F)(F)F)cc12 [PBTZ169, macozinone]", -3],
  ["O=C(C1CCCCC1)N1CCN(c2nc(=O)c3cc(C(F)(F)F)cc([N+](=O)[O-])c3s2)CC1 [Met oxo]", -8],
  ["O=c1nc(N2CCN(CC3CCCCC3O)CC2)sc2c([N+](=O)[O-])cc(C(F)(F)F)cc12 (stereo not drawn) [Met 2-OH]", -17],
  ["O=C1CCCC(CN2CCN(c3nc(=O)c4cc(C(F)(F)F)cc([N+](=O)[O-])c4s3)CC2)C1 (stereo not drawn) [Met 3-oxo]", -32],
  ["O=c1nc(N2CCN(CC3(O)CCCCC3)CC2)sc2c([N+](=O)[O-])cc(C(F)(F)F)cc12 [Met 1-OH]", -4],
  ["O=c1nc(N2CCN(CC3CCCC(O)C3)CC2)sc2c([N+](=O)[O-])cc(C(F)(F)F)cc12 (stereo not drawn) [Met 3-OH]", 12]
]}
